test system: A549; test: NCI tumour cell line growth inhibition, 48 h
Calls of active or inactive are those of the source. No stated cut-off is given here; in the data, active = GI50 up to about 1.1 µM and inactive = higher. Where a SMILES comes first, the peptide text is derived from it. [ ]: non-standard residue; d: D form. Phe(4-NO2) = N[CH](Cc1ccc([N+](=O)[O-])cc1)C(=O)O
endpoint.name: GI50

>>> measured_value("CN(c1ccc(Cl)cc1)S(=O)(=O)c1cccc([N+](=O)[O-])c1")
"> 100 µM (inactive)"
>>> measured_value("COC(=O)C(Cc1ccc(Oc2cc(CC(NC(=O)c3ccccc3)C(=O)OC)ccc2OC)cc1)NC(=O)c1ccccc1 (stereo not drawn)")
"25.7 µM (inactive)"
>>> measured_value("CC(C(=O)c1ccccc1)C1(O)C(=O)Nc2ccccc21 (stereo not drawn)")
"> 100 µM (inactive)"
>>> measured_value("COC(=O)CNC(=O)CCC(C)[C@H]1CCC2C3C(C[C@H](OC(C)=O)[C@@]21C)[C@@]1(C)CCC2(C[C@H]1C[C@H]3OC(C)=O)OOC1(CCCCC1)OO2 (stereo partly drawn)")
"1.72 µM (inactive)"
>>> measured_value("Cc1cc(Cl)ccc1NC1=NC(=O)C(CC(=O)Nc2cccc(Cl)c2)S1 (stereo not drawn)")
"20.8 µM (inactive)"
>>> measured_value("COc1ccc(/N=N/C(=O)NC(Cc2ccccc2)C(=O)O)cc1 (stereo not drawn)")
"> 100 µM (inactive)"
>>> measured_value("Cc1ccc(C(=O)NCc2ccccc2)cc1/N=N/N(C)C")
"> 77.8 µM (inactive)"
>>> measured_value("COC(=O)c1c(OC(=O)c2ccccc2)noc1CC(=O)OC1C=CCCC1 (stereo not drawn)")
"> 100 µM (inactive)"
>>> measured_value("COc1ccc(C2Oc3c(cc(O)c(OC)c3C)[C@@H]2C)cc1OC (stereo partly drawn)")
"> 100 µM (inactive)"
>>> measured_value("Nc1nc(N)c2c(n1)NC(=O)c1c(c3ccccc3n1Cc1ccc(Cl)cc1)C2")
"21.1 µM (inactive)"
>>> measured_value("CC[C@@H]1C[C@H]2CC3c4[nH]c5ccc(O)cc5c4CCN(C2)C31")
"> 100 µM (inactive)"
>>> measured_value("Nc1c(Br)cc(-c2nc3ccccc3s2)cc1Br")
"> 100 µM (inactive)"
>>> measured_value("O=C(Nc1nnn[nH]1)c1nc(O)cc(-c2ccccc2)n1")
"> 100 µM (inactive)"
>>> measured_value("C=C1CC2(CC(c3ccccc3OC)OC(c3ccccc3OC)C2)OC1=O (stereo not drawn)")
"4.76 µM (inactive)"
>>> measured_value("NC1CC(N)c2c(Br)sc(Br)c21 (stereo not drawn)")
"97.7 µM (inactive)"
>>> measured_value("CC(NCCS(=O)(=O)O)C(=O)O (stereo not drawn)")
"> 100 µM (inactive)"
>>> measured_value("CC(C)(Oc1ccc(Cl)cc1)C(=O)N(C(=O)N1CCN(c2ccccc2)CC1)c1ccccc1")
"7.46 µM (inactive)"
>>> measured_value("COc1ccc2c(c1)C1(C=N2)CCN(C(C)=O)CC1")
"> 100 µM (inactive)"
>>> measured_value("COC(=O)CCC(NC(=O)C(CCC(=O)OC)NC(=O)C(CCC(=O)OC)NC(=O)C(CCC(=O)OC)NC(=O)C(CCC(=O)OC)NC(=O)C(Cc1ccc([N+](=O)[O-])cc1)NC(=O)C(CCC(=O)OC)NC(=O)C(CCC(=O)OC)NC(=O)C(CCC(=O)OC)NC(=O)C(CCC(=O)OC)NC(=O)C(CCC(=O)OC)NC(C)=O)C(N)=O (stereo not drawn) (Ac-E(OMe)E(OMe)E(OMe)E(OMe)E(OMe)[Phe(4-NO2)]E(OMe)E(OMe)E(OMe)E(OMe)E(OMe)-NH2; configuration not given here)")
"> 100 µM (inactive)"
>>> measured_value("CC(C)C1NC(=O)CC(c2ccccc2)N(N=O)C1c1ccccc1 (stereo not drawn)")
"> 100 µM (inactive)"
>>> measured_value("CSc1nncc2[nH]cnc12")
"> 100 µM (inactive)"
>>> measured_value("O=S(=O)(Oc1ccc2oc3ccccc3c2c1-c1c(OS(=O)(=O)C(F)(F)F)ccc2oc3ccccc3c12)C(F)(F)F")
"> 100 µM (inactive)"
>>> measured_value("Oc1cc(-c2ccc[nH]2)nc2cc3c(cc12)OCO3")
"53.8 µM (inactive)"

* * *

tested on: CAKI-1; test: NCI tumour cell line growth inhibition, 48 h
Calls of active or inactive are those of the source. Cut-off read from the data, not from the text of the source: active = GI50 up to about 1.1 µM and inactive = higher. Where a SMILES comes first, the peptide text is derived from it. [ ]: non-standard residue; d: D form. Phe(4-NO2) = N[CH](Cc1ccc([N+](=O)[O-])cc1)C(=O)O
Outcome codes: active, inactive

>>> class_name("Cc1cc2c(cc1N)C(C)C1(CCC(=O)N2Cc2ccccc2)OCCO1 (centres undefined)")
"inactive"
>>> class_name("CSC1=C(C(=O)Nc2ccc(Cl)cc2)C(N)=NC1=O")
"inactive"
>>> class_name("CN(C)CCn1c2c(c3ccccc31)CCc1ccccc1-2")
"inactive"
>>> class_name("Cc1cc(O)c2c(c1)C(=O)C(c1c(C)cc3c(c1O)C(=O)C1OC1C3=O)=CC2=O (centres undefined)")
"active"
>>> class_name("CC1(C)CCCCCC(O)C(O)CCC(C)(C)C1=O (centres undefined)")
"inactive"
>>> class_name("O=C(COc1ccc(OCC(=O)N/N=C/c2ccc(-c3ccc(Cl)cc3Cl)o2)c(Cl)c1)N/N=C/c1ccc(-c2ccc(Cl)cc2Cl)o1")
"inactive"
>>> class_name("CC1(C)CC(=O)c2c(oc3cc(O)c(O)cc23)C1")
"inactive"
>>> class_name("O=C(CCC(=O)c1ccsc1)c1ccsc1")
"inactive"
>>> class_name("CC(C)(C)n1c(=O)n(-c2ccccc2)n(C(C)(C)C)c1=O")
"inactive"
>>> class_name("CN(N=O)C(=O)Nc1c[nH]c(=O)[nH]c1=O")
"inactive"
>>> class_name("c1sc(NC2=NCCO2)c2c1CCCC2")
"inactive"
>>> class_name("COC(=O)c1ccccc1CC(Cc1ccc2c(c1)CCC2)C(=O)OC (centres undefined)")
"inactive"
>>> class_name("COc1ccc(/N=N/C(=O)NC(Cc2ccccc2)C(=O)O)cc1 (centres undefined)")
"inactive"
>>> class_name("Cn1ccnc1C(O)(c1nccn1C)c1nccn1C")
"inactive"
>>> class_name("COC(=O)CCC(NC(=O)C(CCC(=O)OC)NC(=O)C(CCC(=O)OC)NC(=O)C(CCC(=O)OC)NC(=O)C(CCC(=O)OC)NC(=O)C(Cc1ccc([N+](=O)[O-])cc1)NC(=O)C(CCC(=O)OC)NC(=O)C(CCC(=O)OC)NC(=O)C(CCC(=O)OC)NC(=O)C(CCC(=O)OC)NC(=O)C(CCC(=O)OC)NC(C)=O)C(N)=O (centres undefined) (Ac-E(OMe)E(OMe)E(OMe)E(OMe)E(OMe)[Phe(4-NO2)]E(OMe)E(OMe)E(OMe)E(OMe)E(OMe)-NH2; configuration not given here)")
"inactive"
>>> class_name("CSCCCS/C1=C/CCCCCCCCCC1")
"inactive"
>>> class_name("COc1ccc(C(=O)Cn2c(C(C)=O)nc3ccccc32)cc1")
"inactive"
>>> class_name("COC(=O)[C@H](CC(C)C)NC(=O)[C@H](Cc1ccccc1)N1CC2C=CC1C2 (some centres undefined)")
"inactive"
>>> class_name("CC(C)(Oc1ccc(Cl)cc1)C(=O)N(C(=O)N1CCN(c2ccccc2)CC1)c1ccccc1")
"inactive"

* * *

Below, each entry is listed alongside its reported GI50.
system: COLO 205; assay: NCI tumour cell line growth inhibition, 48 h
Activity calls are given as the source filed them. No stated cut-off is given here; in the data, active = GI50 up to about 1.1 µM and inactive = higher.
endpoint.name: GI50

>>> measured_value("Nc1nc(N)c2ncn(CCCC(c3ccccc3)P(=O)(O)O)c2n1 (stereo unspecified)")
"> 100 µM (inactive)"
>>> measured_value("CC1(C)CC(=O)C(CC2C(=O)c3ccccc3C2=O)C(=O)C1")
"> 100 µM (inactive)"
>>> measured_value("C=CCCCCCCCCC(=O)NS(=O)(=O)c1ccccc1")
"> 100 µM (inactive)"
>>> measured_value("C=CCOC(=O)C1CCC(=O)N1C(=O)C(Cl)Cl (stereo unspecified)")
"> 100 µM (inactive)"
>>> measured_value("C=CS(=O)(=O)c1c2cc(OC)ccc2nc2ccc(OC)cc12")
"4.34 µM (inactive)"
>>> measured_value("COc1ccc(/N=N/C(=O)NC(CC(C)C)C(=O)NC(Cc2ccccc2)C(=O)O)cc1 (stereo unspecified)")
"1.71 µM (inactive)"

* * *

system: SK-OV-3; assay: NCI tumour cell line growth inhibition, 48 h
Calls of active or inactive are those of the source. No stated cut-off is given here; in the data, active = GI50 up to about 1.1 µM and inactive = higher.
A collection of compounds and their measured GI50
endpoint.name: GI50

>>> measured_value("N=C(N)NCCCC(=O)O")
"> 100 µM (inactive)"
>>> measured_value("CCOC(=O)C1=C(C)N(NC(N)=O)C2(N)N(NC(N)=O)C(C)=C(C(=O)OCC)C12C(=O)OCC (centres undefined)")
"> 100 µM (inactive)"
>>> measured_value("C[C@H](CCC(=O)O[C@@H]1CC[C@@]2(C)C(CC[C@H]3[C@@H]4CC[C@H]([C@H](C)CCc5nc6ccccc6[nH]5)[C@@]4(C)CC[C@@H]32)C1)[C@H]1CC[C@H]2[C@@H]3CCC4C[C@H](O)CC[C@]4(C)[C@H]3CC[C@]12C (some centres undefined)")
"> 81.5 µM (inactive)"
>>> measured_value("COC1=CC(=Nc2c(Cl)cc(Cl)cc2OC(=O)c2ccc([N+](=O)[O-])cc2)C=C(OC)C1=O")
"16.5 µM (inactive)"
